Target: S1P3 receptor (Homo sapiens)
Construct: membrane protein
Sequence (Q99500 whole entry): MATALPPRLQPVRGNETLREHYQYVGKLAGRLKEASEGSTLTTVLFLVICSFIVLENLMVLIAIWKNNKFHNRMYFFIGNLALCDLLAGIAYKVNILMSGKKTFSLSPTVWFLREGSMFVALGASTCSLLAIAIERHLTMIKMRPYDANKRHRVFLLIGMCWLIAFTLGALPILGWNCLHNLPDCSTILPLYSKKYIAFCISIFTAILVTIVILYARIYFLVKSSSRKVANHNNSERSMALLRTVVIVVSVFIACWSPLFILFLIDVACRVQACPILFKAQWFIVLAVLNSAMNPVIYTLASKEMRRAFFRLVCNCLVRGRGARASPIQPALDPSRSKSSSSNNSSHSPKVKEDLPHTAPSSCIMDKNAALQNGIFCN
Assay: 35S-GTPγS binding assay using membrane preparation of CHO cell temporarily expressing S1P3 receptor
Settings: agonist activity, membrane of CHO cell temporarily transfected with S1P3 gene
Protocol: ^35s-GTPγS binding assay using membrane preparation of CHO cell of temporarily expressing S1P3 receptor A GTPγS binding test associated with S1P3 receptor was performed by using the same method as that of the GTPγS binding test associated with S1P1 receptor. In the test, a membrane protein which was produced from a CHO cell in which S1P3 gene was temporarily transfected was used. […]
pEC50: −log10 of the molar value.
Listed here are molecules together with their documented pEC50.
readout-label: pEC50

test-smiles | test-result
O=C(O)[C@H]1CCC[C@H](NCc2ccc(OCc3cc(-c4ccccc4)c(C(F)(F)F)s3)cc2)C1 | 6.06
O=C(O)[C@H]1CC[C@H](NCc2ccc(OCc3cc(-c4ccccc4)c(C(F)(F)F)s3)cc2)C1 | 6.93

###

Target: S1P1 receptor (Homo sapiens)
Construct: membrane preparation
Assay: 35S-GTPγS binding assay using membrane preparation of CHO cell stably expressing S1P1 receptor
Details: agonist activity

molecule | tgt | result-unit | EC50
CC(C)Cc1ccc(-c2nc(-c3ccc(CN[C@@H]4CC[C@@H](C(=O)O)C4)cc3)no2)cc1 [Example 139] | S1P1 receptor (Homo sapiens) | nM | 23
O=C(O)CCNCc1ccc(-c2noc(-c3ccc(-c4ccccc4F)s3)n2)cc1 [Example 120] | S1P1 receptor (Homo sapiens) | nM | 3.6
Cl.O=C(O)CCNCc1ccc(-c2noc(-c3ccc(CCC(F)(F)F)cc3)n2)cc1 [Example 104] | S1P1 receptor (Homo sapiens) | nM | 2.1
O=C(O)[C@@H]1CC[C@@H](NCc2ccc(-c3noc(-c4cc(-c5ccccc5)c(C(F)(F)F)s4)n3)cc2)C1 [Example 138] | S1P1 receptor (Homo sapiens) | nM | 21
CC(C)Oc1ccc(-c2nc(-c3ccc(CN[C@H]4C[C@H](C(=O)O)C4)cc3)no2)cc1C(F)(F)F [Example 135] | S1P1 receptor (Homo sapiens) | nM | 0.72
O=C(O)CCNCc1ccc(-c2noc(-c3ccc(OC4CCCCC4)c(C(F)(F)F)c3)n2)cc1 [Example 45] | S1P1 receptor (Homo sapiens) | nM | 1.6
Cc1ccccc1-c1ccc(-c2nc(-c3ccc(CNCCC(=O)O)cc3)no2)cc1C [Example 110] | S1P1 receptor (Homo sapiens) | nM | 0.35
Cc1cc(-c2nc(-c3ccc(CNCCC(=O)O)cc3)no2)ccc1-c1ccoc1.Cl [Example 117] | S1P1 receptor (Homo sapiens) | nM | 0.07

###

Listed here are compounds together with their documented log10 EC50.
Target: S1P1 receptor (Homo sapiens, UniProt P21453)
Construct: membrane preparation
Sequence (P21453 whole entry): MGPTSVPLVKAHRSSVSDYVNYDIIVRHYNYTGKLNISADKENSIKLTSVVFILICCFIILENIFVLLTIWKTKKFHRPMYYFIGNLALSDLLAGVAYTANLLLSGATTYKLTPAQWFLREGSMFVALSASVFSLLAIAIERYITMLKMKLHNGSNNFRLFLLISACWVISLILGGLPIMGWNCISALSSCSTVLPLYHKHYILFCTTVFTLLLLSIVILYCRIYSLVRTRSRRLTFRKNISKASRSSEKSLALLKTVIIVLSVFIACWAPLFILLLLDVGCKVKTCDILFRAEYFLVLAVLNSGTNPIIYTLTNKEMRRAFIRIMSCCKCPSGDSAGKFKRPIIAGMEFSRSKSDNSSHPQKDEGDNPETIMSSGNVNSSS
Test: 35S-GTPγS binding assay using membrane preparation of CHO cell stably expressing S1P1 receptor
Conditions: agonist activity
readout-label: log10 EC50 (log10 of the value in nM)

test-smiles | tgt | test-result
O=C(O)CCNCc1ccc(-c2noc(-c3ccc(-c4ccc(C(F)(F)F)cc4)cc3)n2)cc1 | S1P1 receptor (Homo sapiens, UniProt P21453) | 1.84
O=C(O)CCNCc1ccc(-c2noc(-c3ccc(-c4ccccc4F)c(C(F)(F)F)c3)n2)cc1 | S1P1 receptor (Homo sapiens, UniProt P21453) | -0.43
Cc1cc(-c2ccccc2F)ccc1-c1nc(-c2ccc(CNCCC(=O)O)cc2)no1 | S1P1 receptor (Homo sapiens, UniProt P21453) | 1.75
Cc1cc(-c2ccccc2)ccc1-c1nc(-c2ccc(CNCCC(=O)O)cc2)no1 | S1P1 receptor (Homo sapiens, UniProt P21453) | 1.53
Cc1cc(-c2nc(-c3ccc(CNCCC(=O)O)cc3)no2)ccc1-c1ccccc1.Cl | S1P1 receptor (Homo sapiens, UniProt P21453) | -0.47
CC(C)COc1ccc(-c2nc(-c3ccc(CN[C@H]4C[C@H](C(=O)O)C4)cc3)no2)cc1C(F)(F)F | S1P1 receptor (Homo sapiens, UniProt P21453) | 0.60
O=C(O)[C@@H]1C[C@@H](O)[C@H](NCc2ccc(OCc3cc(-c4ccccc4)c(C(F)(F)F)s3)cc2)C1 | S1P1 receptor (Homo sapiens, UniProt P21453) | 2.08
O=C(O)CCNCc1ccc(-c2noc(-c3ccc(-c4ccccc4C(F)(F)F)c(C(F)(F)F)c3)n2)cc1 | S1P1 receptor (Homo sapiens, UniProt P21453) | 0.11
O=C(O)CCNCc1ccc(-c2noc(-c3ccc(-c4ccccn4)cc3)n2)cc1 | S1P1 receptor (Homo sapiens, UniProt P21453) | 1.62
Cc1cc(-c2nc(-c3ccc(CNCCC(=O)O)cc3)no2)ccc1-c1ccccc1OC(F)(F)F | S1P1 receptor (Homo sapiens, UniProt P21453) | -0.72
O=C(O)CCNCc1ccc(-c2noc(-c3ccc(-c4ccccc4)cn3)n2)cc1 | S1P1 receptor (Homo sapiens, UniProt P21453) | 1.40
O=C(O)CCNCc1ccc(-c2noc(-c3cc(-c4ccccc4)c(C(F)(F)F)s3)n2)s1 | S1P1 receptor (Homo sapiens, UniProt P21453) | -0.70
O=C(O)CCNCc1ccc(OCc2cc(-c3ccccc3)c(C(F)(F)F)s2)c(Br)c1 | S1P1 receptor (Homo sapiens, UniProt P21453) | 1.43
COc1cc(OCc2cc(-c3ccccc3)c(C(F)(F)F)s2)ccc1CNCCC(=O)O | S1P1 receptor (Homo sapiens, UniProt P21453) | 1.57
O=C(O)CCNCc1ccc(OCc2ccc3c(cnn3Cc3ccccc3)c2)cc1 | S1P1 receptor (Homo sapiens, UniProt P21453) | 1.81
Cl.N#Cc1ccccc1-c1ccc(-c2nc(-c3ccc(CNCCC(=O)O)cc3)no2)cc1C#N | S1P1 receptor (Homo sapiens, UniProt P21453) | 0.15

###

Biological target: S1P1 receptor (Homo sapiens, UniProt P21453)
Construct: membrane preparation
Test: 35S-GTPγS binding assay using membrane preparation of CHO cell stably expressing S1P1 receptor
Details: agonist activity
pEC50: −log10 of the molar value.
Listed here are compounds together with their documented pEC50.

test-smiles | pEC50
Cc1cc(-c2nc(-c3ccc(CNCCC(=O)O)cc3)no2)ccc1-c1ccc(F)cc1 | 9.47
O=C(O)[C@@H]1C[C@H](NCc2ccc(OCc3cc(-c4ccccc4)c(C(F)(F)F)s3)cc2)CN1 | 6.57
CCc1cc(-c2nc(-c3ccc(CNCCC(=O)O)cc3)no2)ccc1-c1ccccc1 | 9.39
CC(C)Cc1ccc(-c2nc(-c3ccc(CNCCC(=O)O)cc3)no2)cc1.Cl | 9.30
CC(C)/C=C/CCCCc1nc(-c2ccc(CNCCC(=O)O)cc2)no1 | 7.34
O=C(O)[C@H]1CC[C@H](NCc2ccc(OCc3cc(-c4ccccc4)c(C(F)(F)F)s3)cc2)C1 | 8.40
Cl.O=C(O)CCNCc1ccc(-c2noc(-c3ccc(-c4ccccc4)c(C(F)(F)F)c3)n2)cc1 | 9.60
O=C(O)CCNCc1ccc(-c2noc(-c3ccc(-c4ccccc4C(F)(F)F)cc3)n2)cc1 | 9.40
O=C(O)[C@H]1C[C@H](NCc2ccc(-c3noc(-c4cc(-c5ccccc5)c(C(F)(F)F)s4)n3)cc2)C1 | 8.35
N#Cc1cc(-c2nc(-c3ccc(CNCCC(=O)O)cc3)no2)ccc1-c1ccccc1F | 9.77
O=C(O)CCNCc1ccc(-c2noc(-c3ccc(-c4ccc(F)cc4)cc3)n2)cc1 | 7.85
Cc1cc(-c2nc(-c3ccc(CNCCC(=O)O)cc3)no2)ccc1-c1ccsc1 | 10.15
Cc1cc(-c2nc(-c3ccc(CNCCC(=O)O)cc3)no2)ccc1-c1cscc1C | 10.40
CC(C)Sc1ccc(-c2nc(-c3ccc(CNCCC(=O)O)cc3)no2)cc1 | 7.96
CCc1cc(-c2nc(-c3ccc(CNCCC(=O)O)cc3)no2)ccc1-c1ccccc1F | 9.54
Cl.O=C(O)CCNCc1ccc(-c2noc(-c3ccc(-c4ccccc4)c(OC(F)(F)F)c3)n2)cc1 | 9.31

###

Test system: peripheral lymphocytes
Assay: Evaluation of reduction in peripheral blood lymphocyte count
Format: in vivo
Settings: 3 h; rat, oral; dose required to reduce the lymphocyte count by 50% in three hours from the administration
// NB: equality with 0.7 mg/kg counts as False; only ED50 strictly below is True

compound | tgt | group
Cl.O=C(O)CCNCc1ccc(-c2noc(C3CCC(c4ccccc4)CC3)n2)cc1 (stereo not drawn) [Example 61] | peripheral lymphocytes | True
CC(C)Oc1ccc(-c2nc(-c3ccc(CN[C@H]4C[C@H](C(=O)O)C4)cc3)no2)cc1C(F)(F)F [Example 135] | peripheral lymphocytes | True
Cl.O=C(O)CCNCc1ccc(-c2noc(-c3ccc(-c4ccccc4)c(OC(F)(F)F)c3)n2)cc1 [Example 105] | peripheral lymphocytes | True
O=C(O)C1CC(NCc2ccc(OCc3cc(-c4ccccc4)c(C(F)(F)F)s3)cc2)C1 (stereo not drawn) [Example 6] | peripheral lymphocytes | False
